test: qHTS assay to identify small molecule antagonists of the estrogen related receptor (ERR) signaling pathway from Tox21 library - cell viability counter screen (AID 1224834); conditions: ERR reporter cells viability, CellTiter-Fluor, 17.5 h; series mostly up to 92.4 µM; note: nearly all actives have a fitted effect of over 30% in size
Records with an inconclusive call do not appear. Activity calls are given as the source filed them. Calls come from the whole dose curve; as a rule, active = well fitted cell-killing curve with a large enough effect in the repeat runs; inconclusive = weak or mixed curves; inactive = flat fitted curve, though single readings scatter.
Your reply should match one of these outcome classes. 1.0 for active, 0.0 for inactive

CO/C=C(/C(=O)OC)c1ccccc1Oc1cc(Oc2ccccc2C#N)ncn1 = 1.0

INPUT: Hey, what did the test say about CC1COC(Cn2cncn2)(c2ccc(Oc3ccc(Cl)cc3)cc2Cl)O1 (stereo unspecified) ?
OUTPUT: 1.0

INPUT: Similarly, "CCN(CC)C(=O)Cl" ?
OUTPUT: 0.0

INPUT: Similarly, Cc1nnc2n1-c1sc(CCc3ccc(CC(C)C)cc3)cc1C(c1ccccc1Cl)=NC2C (stereo unspecified) ?
OUTPUT: 1.0

INPUT: Similarly, "Cc1cc(C(C)(C)c2ccc(O)c(C)c2)ccc1O" ?
OUTPUT: 1.0

INPUT: Similarly, "COc1cc(OC)c(OC)cc1C=O" ?
OUTPUT: 0.0
